- assay.details: Steady-state plasma concentrations of PMB
- Type: in vivo
- assay.setup: human, iv
Where a SMILES comes first, the peptide text is derived from it. Bridges are numbered along the chain shown (N, C = ends). [ ]: non-standard residue; d: D form. The star is where a group is joined. Heptanoyl(6-Me) = CC(C)CCCCC(=O)*; Dab = NCC[C@H](N)C(=O)O
reported.property: Cmax (ng/mL)
Enter your answer as a number in ng/mL; do not include the unit.

Lab note: measured Cmax of CC(C)CCCCC(=O)N[C@@H](CCN)C(=O)N[C@H](C(=O)N[C@@H](CCN)C(=O)N[C@H]1CCNC(=O)[C@H]([C@@H](C)O)NC(=O)[C@H](CCN)NC(=O)[C@H](CCN)NC(=O)[C@H](CC(C)C)NC(=O)[C@@H](Cc2ccccc2)NC(=O)[C@H](CCN)NC1=O)[C@@H](C)O [PMB2, polymyxin B2] ({Heptanoyl(6-Me)}-[Dab]T[Dab][Dab][Dab][dF]L[Dab][Dab]T; lactam 4-C) was 1000
